- Tested on: 282377-053-R-J1-PDC complex spheroid viability;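 also: spheroids exposed to compounds for seven days; 100% = DMSO vehicle control viability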
- method: Anticancer human tumor 282377-053-R-J1-PDC patient-derived colon adenocarcinoma cell line growth inhibition [POLQ]
- test conditions: second compound 0.316 µM; first compound 0.0316 µM; active compounds read low
viability, T/C reference
The figure you give is taken to be in %; do not add the unit.

Solved cases (2 shown):
{"columns": ["molecule", "assayed target", "reported metric", "measurement unit", "val"],
 "data": [
  ["CCc1cc2c(N3CCc4c(cc(Cn5ccnc5)cc4-c4cn(C)nc4C(F)(F)F)C3=O)ccnc2c(OC)n1 + COC1C(OC(N)=O)C(O)C(Oc2ccc3c(O)c(NC(=O)c4ccc(O)c(CC=C(C)C)c4)c(=O)oc3c2C)OC1(C)C", "282377-053-R-J1-PDC complex spheroid viability", "viability, T/C", "%", 147],
  ["CC[C@@]1(O)C(=O)OCc2c1cc1n(c2=O)Cc2cc3c(CN(C)C)c(O)ccc3nc2-1 + COC1C(OC(N)=O)C(O)C(Oc2ccc3c(O)c(NC(=O)c4ccc(O)c(CC=C(C)C)c4)c(=O)oc3c2C)OC1(C)C", "282377-053-R-J1-PDC complex spheroid viability", "viability, T/C", "%", 110]
]}

Here's the next entry for you.
Input line: For the molecule CCCS(=O)(=O)Nc1ccc(F)c(C(=O)c2c[nH]c3ncc(-c4ccc(Cl)cc4)cc23)c1F + Cc1cccc(N(C)C(=O)C2C(O)CCN2c2nc(C)cc(C(F)(F)F)c2C#N)c1 , what viability, T/C is on record?
Output line: 92.5
